Each entry below carries its reported IC50.
Target: Human autotaxin enzyme (Homo sapiens)
Construct: purchased R&D System
Assay: Evaluation of autotaxin inhibitor, Method C (Test Example 3): 18:0 Lyso PC, choline assay, Resorufin fluorescence
Type: biochemical
Details: Assay Method C (Test Example 3), human autotaxin, 18:0 Lyso PC substrate; read-out: Inhibitory Activity (autotaxin enzyme inhibitory activity, IC50 class)

Previously resolved entries follow.
compound="CCCCCn1c(N2CCC[C@H]2C(=O)NC(C)(C)C(=O)OC)cc(=O)n2cc(-c3ccc(Cl)cc3)nc12 [Compound 689]" observation_type=IC50 observed="< 0.01 µM"
compound="CCCCCn1c(N2CCC[C@H]2C(=O)N2CCCC(C(N)=O)C2)cc(=O)n2cc(-c3ccc(Cl)cc3)nc12 (some centres unmarked) [Compound 695]" observation_type=IC50 observed="0.1 to 1 µM"
compound="CCCCCn1c(N2CCC(Cc3ccccc3)C2)cc(=O)n2cc(-c3ccc(Cl)cc3)nc12 (centres unmarked) [Compound 325]" observation_type=IC50 observed="0.1 to 1 µM"
compound="CCCCCn1c(N2CCC[C@H]2C(=O)NC2CCCNC2=O)cc(=O)n2cc(-c3ccc(Cl)cc3)nc12 (some centres unmarked) [Compound 710]" observation_type=IC50 observed="0.1 to 1 µM"
compound="CCCCCn1c(N2CCC[C@H]2C(=O)NC(C)(C)C(C)C(=O)O)cc(=O)n2cc(-c3ccc(Cl)cc3)nc12 (some centres unmarked) [Compound 676]" observation_type=IC50 observed="< 0.01 µM"
compound="CCCCCn1c(-c2cnc(OC)nc2)cc(=O)n2cc(-c3ccc(Cl)cc3)nc12 [Compound 373]" observation_type=IC50 observed="0.01 to 0.1 µM"
compound="CCCCCn1c(N2CCC[C@H]2C(=O)N[C@@H](CC(C)C)C(=O)O)cc(=O)n2cc(-c3ccc(Cl)cc3)nc12 [Compound 733]" observation_type=IC50 observed="< 0.01 µM"
compound="CCCCCn1c(-c2ccc(NC(=O)N3CCOCC3)cc2)cc(=O)n2cc(-c3ccc(Cl)cc3)nc12 [Compound 437]" observation_type=IC50 observed="0.01 to 0.1 µM"

Inquiry: May I ask what IC50 has been recorded for CCCCCn1c(-c2ccc(C(=O)NC[C@@H](O)CO)cc2)cc(=O)n2cc(-c3ccc(Cl)cc3)nc12 [Compound 504] ?
Reply text: 0.01 to 0.1 µM

Inquiry: Record: CCCCCn1c(N2CCC[C@H]2C(=O)NCCCn2ccnc2)cc(=O)n2cc(-c3ccc(Cl)cc3)nc12 [Compound 335]
Reply text: 0.1 to 1 µM

Inquiry: Queued: C[C@H](NC(=O)[C@@H]1C[C@@H](O)CN1c1cc(=O)n2cc(-c3ccc(Cl)cc3)nc2n1Cc1ccccc1)C(=O)O [Compound 754]
Reply text: < 0.01 µM
